Reported IC50 against Vascular endothelial growth factor receptor 2 (Homo sapiens, UniProt P35968), gathered from multiple publications, appears below.
Measurement name: IC50 (nM)

Recorded IC50, per entry:
Chemical string: C[C@@H](O)[C@@H](C)Nc1nc(Nc2ccc(Cl)c(NC(=O)N=S(C)(C)=O)c2)ncc1Br
Assayed system: Vascular endothelial growth factor receptor 2 (Homo sapiens, UniProt P35968)
IC50, nM: 350
--
Chemical string: CSc1ccc(CN2C3CC2CN(c2ccc(-c4cc(-c5cnn(C)c5)cn5ncc(C#N)c45)cn2)C3)cc1
Assayed system: Vascular endothelial growth factor receptor 2 (Homo sapiens, UniProt P35968)
IC50, nM: 0.154
--
Chemical string: COc1cc(OC)cc(N(CCCNCCCO)c2ccc3ncc(-c4ccnc(C(=O)NCCCCN)c4)nc3c2)c1
Assayed system: Vascular endothelial growth factor receptor 2 (Homo sapiens, UniProt P35968)
IC50, nM: 309
--
Chemical string: CSc1ccc(CN2CCN(c3ccc(-c4cc(-c5cnn(C)c5)cn5ncc(C#N)c45)cn3)CC2)nc1
Assayed system: Vascular endothelial growth factor receptor 2 (Homo sapiens, UniProt P35968)
IC50, nM: 10
--
Chemical string: O=C(Nc1ccc(C#Cc2ccc3nccn3n2)cc1)Nc1ccc(F)c(Cl)c1
Assayed system: Vascular endothelial growth factor receptor 2 (Homo sapiens, UniProt P35968)
IC50, nM: 96
--
Chemical string: C=CC(=O)Nc1cc2c(Nc3ccc(Br)cc3F)ncnc2cc1OCCNC(=O)N1CCN(C(C)=O)CC1
Assayed system: Vascular endothelial growth factor receptor 2 (Homo sapiens, UniProt P35968)
IC50, nM: 782

P: Cc1ccc(F)c(NC(=O)Nc2ccccc2C#Cc2ccc3nccn3n2)c1
Q: CC(C)(C)c1cc(NC(=O)Nc2ccc(Oc3ncnc4[nH]ncc34)cc2)on1
I'd appreciate it if you could identify which of P and Q has the greater IC50. Use the label to indicate which entry you chose.
P

====

Study the reported pIC50 values for Vascular endothelial growth factor receptor 2 (Homo sapiens, UniProt P35968) given below; they originate from different publications.
pIC50: −log10 of the molar value.

Compound: COc1cc(OC)cc(N(CCNC(C)C)c2ccc3ncc(-c4ccccc4)nc3c2)c1
Measurement name: pIC50
Endpoint value: 7.31
//
Compound: O=C(Nc1ccc(C(F)(F)F)cc1)Nc1cccc(Oc2cc(-c3nnco3)ncn2)c1
Measurement name: pIC50
Endpoint value: ≥ 5.00
//
Compound: O=C(Nc1cccc(C2CC2)c1)Nc1ccc(Oc2ccnc(NC(=O)C3CC3)c2)c(F)c1
Measurement name: pIC50
Endpoint value: 7.92

Next compound, please.
The recorded pIC50 for "NC(=O)C(=C1Nc2ccccc2N1)c1nccc(C(F)(F)F)n1" is 8.00

====

Literature survey of IC50 (system: Vascular endothelial growth factor receptor 2 (Homo sapiens, UniProt P35968)).

Worked set:
Chemical string: CC(F)(F)c1cccc(NC(=O)Nc2ccc(Oc3cc(NC(=O)C4CC4)ncn3)c(F)c2)c1
IC50: 12.4 nM

Chemical string: COCCOc1cc2nccc(Oc3ccc(NC(=O)c4cnc(C)c(/C=C/C5CCCC5)c4O)cc3F)c2nc1OC
IC50: ≤ 100 nM

Chemical string: C[C@@H](O)[C@@H](C)Oc1nc(Nc2ccc(C(=O)N=S(C)(C)=O)cc2)ncc1Br
IC50: 96 nM

Chemical string: O=C(Nc1cccc(Oc2ccc3nccnc3c2)c1)Nc1ccc(Cl)c(C(F)(F)F)c1
IC50: < 100 nM

Chemical string: COc1cc2nccc(Oc3ccc(NC(=O)N4CC(O)C4)c(Cl)c3F)c2cc1C(N)=O
IC50: 50 to 200 nM

Chemical string: Cn1cc(-c2cc(Oc3cccc(NC(=O)c4ccccc4Oc4ccccc4)c3)ccn2)cn1
IC50: > 10000 nM

Chemical string: O=C(Nc1ccc(F)c(C2CC2)c1)Nc1ccc(Oc2ccnc(NC(=O)C3CC3)c2)cc1F
IC50: 8.7 nM

Now look at this entry.
# IC50 measured on Vascular endothelial growth factor receptor 2 (Homo sapiens, UniProt P35968) for item "CCCS(=O)(=O)Nc1ccc(F)c(C(=O)c2c[nH]c3ncc(OC4CCCC4)cc23)c1F" = ≤ 10000 nM

====

Literature survey of pIC50 (system: Vascular endothelial growth factor receptor 2 (Homo sapiens, UniProt P35968)).
pIC50: −log10 of the molar value.
Measurement name: pIC50

Here are 3 compounds together with their reported answers.
Compound: Cn1cc(-c2ccn3c(-c4cc(NCC5COC(C)(C)O5)nc(-c5ccc(F)cc5F)c4)cnc3c2)cn1 (stereo not shown)
pIC50: 8.12
--
Compound: COc1cc2nccc(Oc3ccc4c(c3)OCCN4C(=O)Nc3cc(C)on3)c2cc1O
pIC50: 8.77
--
Compound: Cc1cc(NC(=O)Nc2cc(C(F)(F)F)ccc2F)cnc1Oc1ccnc(NC(=O)C2CC2)c1
pIC50: 7.86

P: Nc1cn2nc(C#Cc3ccc(NC(=O)c4ccccc4)cc3)ccc2n1
Q: O=C(Nc1cccc(C(F)(F)F)c1)Nc1ccc(Oc2cc(NC(=O)C3CC3)ncn2)cc1F
R: Cc1c(C(=O)Nc2ccc(Oc3ccnc4cc(OC[C@@H](C)O)ccc34)c(F)c2)c(=O)n(-c2ccccc2)n1C
Sort low-to-high on pIC50, please. Your reply should list the labels following the order given in the request.
P, R, Q
(P: 5.90, R: 7.64, Q: 8.07)

====

Reported IC50 against Vascular endothelial growth factor receptor 2 (Homo sapiens, UniProt P35968), gathered from multiple publications, appears below.

Chemical string: COCCOCCOc1cc(Cl)c(Cc2c[nH]c3ncc(Cl)cc23)cc1F
IC50: ≤ 10000 nM
//
Chemical string: Oc1ccc(Cc2c[nH]c3ncc(-c4ccsc4)cc23)cc1O
IC50: ≤ 10000 nM

# IC50 of "CC(C)Oc1cc2nccc(Oc3ccc(NC(=O)c4cn(C)c(=O)n(-c5ccc(F)cc5)c4=O)cc3F)c2c2c1OCCO2" = 500 to 5000 nM

The value of IC50 measured for the compound "C#Cc1ccnc2[nH]cc(C(=O)c3c(F)ccc(NS(=O)(=O)CCC)c3F)c12" turned out to be ≤ 10000 nM

Briefly, IC50 measured for "COc1cc(OC)cc(N(CC2CC2)c2ccc3ncc(C(=O)NCc4ccc(F)cc4)nc3c2)c1" : > 1000 nM

====

IC50 values for Vascular endothelial growth factor receptor 2 (Homo sapiens, UniProt P35968) compiled from several publications are listed below.

Reference set (3 entries):
Molecule: Cc1cc2cc(Cl)ccc2nc1NC(=O)c1ccccc1NCc1ccc(O)nc1
Assayed system: Vascular endothelial growth factor receptor 2 (Homo sapiens, UniProt P35968)
Endpoint value: 50 nM

Molecule: CC(C)Cc1nc(-c2ccnc3[nH]ccc23)no1
Assayed system: Vascular endothelial growth factor receptor 2 (Homo sapiens, UniProt P35968)
Endpoint value: ≤ 10000 nM

Molecule: CNc1ccc(C2CN=C3c4ccc(C(=O)OC)cc4NC(=O)N3C2)cc1 (centres unmarked)
Assayed system: Vascular endothelial growth factor receptor 2 (Homo sapiens, UniProt P35968)
Endpoint value: > 10000 nM

Let us examine a further case.
// assay Vascular endothelial growth factor receptor 2 (Homo sapiens, UniProt P35968), entry "FC(F)(F)c1ccc(CNc2ncc(Cc3c[nH]c4ncncc34)cn2)cn1" , IC50 value = ≤ 10000 nM

====

Reported pIC50 on Vascular endothelial growth factor receptor 2 (Homo sapiens, UniProt P35968) for assorted compounds, compiled from publications.
pIC50: −log10 of the molar value.

Chemical string: COCCOc1cc2nccc(Oc3cc(C)c(NC(=O)c4cn(C)c(=O)n(-c5ccc(F)cc5)c4=O)cc3F)c2c2c1OCCO2
pIC50: 5.30 to 6.30

Chemical string: Cn1cc(-c2nccc(Oc3ccc(NC(=O)Nc4ccc(Cl)c(C(F)(F)F)c4)c(F)c3)n2)cn1
pIC50: ≥ 5.00

Chemical string: Fc1nc(NCc2ccncc2Br)ccc1Cc1c[nH]c2ncncc12
pIC50: ≥ 5.00

Chemical string: O=C(Nc1ccc(F)c(C(=O)c2ccc3nccnc3c2)c1)Nc1ccc(Cl)c(C(F)(F)F)c1
pIC50: > 7.00

Chemical string: Cc1[nH]c(/C=C2\C(=O)Nc3ccc(F)cc32)c(C)c1NC(=O)C1CCNCC1
pIC50: 6.54

The value of pIC50 recorded for "COc1cc(OC)cc(N(CC2CC2)c2ccc3ncc(-c4ccc(OC)nc4)nc3c2)c1" when tested on Vascular endothelial growth factor receptor 2 (Homo sapiens, UniProt P35968) reads < 5.00

Note to self: pIC50 of "Cc1cc(Oc2ccnc(NC(=O)C3CC3)c2)ccc1NC(=O)Nc1cccc(OC(F)(F)F)c1" with Vascular endothelial growth factor receptor 2 (Homo sapiens, UniProt P35968) was 7.98

Value sought: pIC50, system Vascular endothelial growth factor receptor 2 (Homo sapiens, UniProt P35968), item "COc1cc(OC)cc(N(CC2CC2)c2ccc3ncc(-c4cn(C)cn4)nc3c2)c1" . Result: 6.15

The compound "CS(=O)(=O)Nc1cccc(-c2ccnc3[nH]cc(C(=O)c4cc(F)ccc4F)c23)c1" , tested on Vascular endothelial growth factor receptor 2 (Homo sapiens, UniProt P35968), showed pIC50 of ≥ 5.00

Item: "COc1cc2nccc(Oc3ccc(NC(=O)c4cnc(C)c(/C=C/CC(C)C)c4O)cc3F)c2cc1OC" | System: Vascular endothelial growth factor receptor 2 (Homo sapiens, UniProt P35968) | pIC50: ≥ 7.00
